Entry source: ChEMBL document CHEMBL3046126

Assignment: determine reported Phytotoxicity for the given compounds.
System: Cyperus difformis
Method description: Pre-emergence herbicidal activity against Cyperus difformis assessed as phytotoxic weed control visual ratings at 2.5 kg ai/ha measured after 14 days post treatment under flooded conditions
Format: functional
# number then unit; no other words

Reference set (2 entries):
>>> data_value("CC(C)=C1OC(=O)N(c2ccc(Cl)cc2)C1=O")
"100%"
>>> data_value("CC(C)=C1OC(=O)N(c2ccccc2Cl)C1=O")
"0%"

Here's the next entry for you.
Ask: Look up Phytotoxicity for this compound: CC(C)=C1OC(=O)N(c2ccc(Cl)cc2Cl)C1=O
Reply: 100%
